# credit: the supplement of paper PMC8728848

experimental system: Gal(b1-3)GlcNAc(b1-2)[Gal(b1-3)GlcNAc(b1-6)]Man(a1-6)[Gal(b1-3)GlcNAc(b1-2)Man(a1-3)]Man(b1-4)GlcNAc(b1-4)GlcNAc
method summary: glycan array binding signal (z-score within array); higher = stronger binding
reported conditions: glycan notation: IUPAC condensed, linker removed
The entries come from a sample that favours the strongest signals as a whole.
Listed here: items and their measured glycan array binding signal (z-score).
Write the value as a bare number.

Field: example entries. Status: answers known.
{"binder": "SSR2 (Sclerotium rolfsii) (protein) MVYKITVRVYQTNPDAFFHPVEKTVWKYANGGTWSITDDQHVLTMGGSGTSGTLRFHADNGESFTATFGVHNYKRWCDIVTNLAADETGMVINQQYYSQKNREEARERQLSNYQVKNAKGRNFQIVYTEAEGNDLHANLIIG", "glycan array binding signal (z-score)": -0.286}
{"binder": "Epa3to2 (Candida glabrata) (protein) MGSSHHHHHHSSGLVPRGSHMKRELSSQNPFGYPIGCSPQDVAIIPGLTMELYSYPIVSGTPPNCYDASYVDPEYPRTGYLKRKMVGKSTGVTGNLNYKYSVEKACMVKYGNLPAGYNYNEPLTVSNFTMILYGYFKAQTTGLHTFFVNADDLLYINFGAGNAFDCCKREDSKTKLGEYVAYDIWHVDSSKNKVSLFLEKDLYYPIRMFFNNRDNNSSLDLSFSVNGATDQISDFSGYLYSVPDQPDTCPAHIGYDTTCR", "glycan array binding signal (z-score)": 0.52}
{"binder": "Protein L(B1-B4) (Finegoldia magna), Q51912 (protein) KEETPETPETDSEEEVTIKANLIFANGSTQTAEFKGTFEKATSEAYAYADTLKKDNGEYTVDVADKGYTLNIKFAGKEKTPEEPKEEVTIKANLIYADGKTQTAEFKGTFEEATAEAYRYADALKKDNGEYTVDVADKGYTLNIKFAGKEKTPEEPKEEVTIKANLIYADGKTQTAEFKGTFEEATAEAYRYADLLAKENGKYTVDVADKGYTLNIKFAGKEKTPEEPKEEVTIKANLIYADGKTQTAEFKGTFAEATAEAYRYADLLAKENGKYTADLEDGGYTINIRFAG", "glycan array binding signal (z-score)": 0.177}
{"binder": "FimD (Bordetella pertussis) (protein) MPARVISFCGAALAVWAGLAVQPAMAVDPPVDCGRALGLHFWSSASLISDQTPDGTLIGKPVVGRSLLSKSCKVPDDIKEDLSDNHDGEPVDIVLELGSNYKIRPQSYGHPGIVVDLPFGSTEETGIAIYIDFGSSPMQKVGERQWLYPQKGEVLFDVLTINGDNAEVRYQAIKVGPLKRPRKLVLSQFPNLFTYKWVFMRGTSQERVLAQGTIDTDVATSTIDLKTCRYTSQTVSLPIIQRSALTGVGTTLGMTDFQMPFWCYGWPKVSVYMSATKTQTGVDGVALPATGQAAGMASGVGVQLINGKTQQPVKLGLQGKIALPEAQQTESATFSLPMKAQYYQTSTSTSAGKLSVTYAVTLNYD", "glycan array binding signal (z-score)": 0.171}

Consider now this further binder.
Problem: Could you tell me which glycan array binding signal (z-score) is on file for RbmA (Vibrio cholerae), A0A2H4NFB8 (protein) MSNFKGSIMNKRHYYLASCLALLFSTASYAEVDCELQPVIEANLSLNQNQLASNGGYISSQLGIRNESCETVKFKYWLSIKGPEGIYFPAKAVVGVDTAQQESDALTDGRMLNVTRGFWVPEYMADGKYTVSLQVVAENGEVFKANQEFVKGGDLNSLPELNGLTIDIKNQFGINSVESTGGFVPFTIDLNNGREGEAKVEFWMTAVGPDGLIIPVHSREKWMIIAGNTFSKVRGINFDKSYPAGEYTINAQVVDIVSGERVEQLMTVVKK ?
Result: -0.69
